Numbers sourced from PubChem BioAssay (NCI).

system: TK-10 renal; test: NCI tumour cell line growth inhibition, 48 h
attribute.measured: TGI

Request: Supply TGI measured with TK-10 renal for CCSc1nc(-c2cccs2)nc2ccc(I)cc12 .
Result: > 100 µM

Request: Report its TGI with TK-10 renal as the test system: Cc1ccc(N=NC(C2=NC(=O)CS2)c2nc3ccccc3[nH]2)cc1 (stereo not given)
Result: > 100 µM

Request: Provide TGI, recorded with TK-10 renal, of C#CC(O)/C=C/C(O)CCCC(O)CC#CC(O)C#CC(O)CCCC(O)/C=C/CCCCCC(=O)CCCCCCCCCCCCCC(O)C(O)C#CC(=O)O (stereo not given)
Result: > 50 µM

Request: Recall the reported TGI of CO/N=C(\C)c1cccc(Nc2nc3ccccc3c3occc23)c1 when tested on TK-10 renal.
Result: 26 µM

Request: Please report TGI with TK-10 renal for item CC(=O)O[C@H]1C(=O)[C@@]2(C)C(C(OC(=O)c3ccccc3)[C@]3(O)CC(OC(=O)C(O)C(NC(=O)c4ccccc4)c4cccc(Cl)c4)C(C)=C1C3(C)C)[C@]1(OC(C)=O)CO[C@@H]1C[C@@H]2O (stereo not given in full) .
Result: > 10 µM

Request: Provide TGI, tested on TK-10 renal, for COCCOC1=C(Cl)C(=O)c2c(O)ccc(O)c2C1=O .
Result: 3.24 µM

Request: State the measured TGI (TK-10 renal) of COc1cc(NC(C)CCCN2C(=O)c3ccccc3C2=O)c2ncccc2c1OC (stereo not given)
Result: > 100 µM

Request: Return reported TGI for target or system TK-10 renal, item Nc1ccc(C(=O)Nc2ccccc2N)cc1 .
Result: > 63.1 µM

Request: Give TGI; test system TK-10 renal; compound Cn1cc(C2=C(c3c(S(C)=O)n(C)c4ccccc34)C(=O)NC2=O)c2ccccc21 (stereo not given)
Result: > 25 µM

Request: Provide the reported TGI (system: TK-10 renal) for CCSc1nnc(-c2ccccc2)nc1Cc1ccc(OC)cc1
Result: > 100 µM

Request: Report TGI from TK-10 renal testing of CCOC(=O)c1cc(-c2ccccc2)[nH]c1N/N=C/c1c(Cl)cccc1Cl
Result: > 87.8 µM

Request: Recall the reported TGI of C=C1CC(C)(COc2ccc3c(C)cc(=O)oc3c2)OC1=O (stereo not given) on TK-10 renal and write it down.
Result: 4.06 µM

Request: Report TGI on TK-10 renal for this entry: Clc1ccc(-c2nc3ccc4ccccc4c3c3c2CCCC3)cc1
Result: > 100 µM

Request: Given CCc1ccc(/C=C/C(=O)C2CN(CC)CCC2(O)/C=C/c2ccc(CC)cc2)cc1 (stereo not given) , report its TGI on TK-10 renal.
Result: 5.54 µM

Request: Supply TGI measured with TK-10 renal for C#Cc1ccc(-n2c(/C=C/c3ccc4ccccc4c3)nc3ncccc3c2=O)cc1 .
Result: > 100 µM

Request: For TK-10 renal, give TGI of the listed compound: CCOC(=O)Nc1cc2c(c(N)n1)N=C(c1ccc3ccccc3c1)CN2
Result: > 60.7 µM

Request: Please tell me the measured TGI for CCO[C@]12CCC[C@H]1[C@@H]1C(=O)c3ccccc3C(=O)C1=C(C)O2 ; system: TK-10 renal.
Result: > 100 µM

Request: Using TK-10 renal as the test system, report measured TGI of COC(=O)/C=C(\C)CC/C=C(\C)CCC(O)C(C)(C)O (stereo not given) .
Result: > 100 µM

Request: Give reported TGI for COc1ccc(-c2nc3sccn3c2-c2ccnc(NCCCNS(=O)(=O)c3ccc(F)cc3)n2)cc1 (TK-10 renal)
Result: > 100 µM

Request: // fetch TGI for CCc1ccc([O-])c(C=NCCCN(C)CCCN=Cc2cc(C)ccc2[O-])c1.[Co+3].[N-]=[N+]=[N-] ; system: TK-10 renal
Result: 50 µg/mL

====

system: UO-31 renal; assay: NCI tumour cell line growth inhibition, 48 h
attribute.measured: TGI

Request: Look up and report TGI, with UO-31 renal as system, for O=C1C(Br)=CC2(C=C1Br)CCNc1c(O)c3c4c(c12)=NCCC=4C=N3
Result: 0.685 µM

Request: Answer briefly: TGI recorded on UO-31 renal for Cc1c/c(=N/NC(=O)c2ccncc2)n2nc(N)sc2n1
Result: > 100 µM

Request: Look up UO-31 renal data: TGI of COc1c(Br)cc(/C=C(\C#N)c2ccccn2)cc1Br , then report it.
Result: > 100 µM

Request: Please report the measured TGI for C=C(C)CC(C)(c1cc2ccccc2n1C)N1CCOCC1 (stereo not drawn) tested on UO-31 renal.
Result: > 100 µM

Request: Give TGI; test system UO-31 renal; compound O=C1c2ccccc2C(=O)c2c1ccc1c2N=C(c2ccc(Br)cc2)CC(c2cccc3ccccc23)N1 (stereo not drawn)
Result: > 100 µM

Request: Return reported TGI for target or system UO-31 renal, item COC(=O)C(/C(=N/N)C(=O)Nc1cccc(O)c1)c1nc2ccccc2[nH]c1=O (stereo not drawn) .
Result: > 100 µM

Request: Report TGI from UO-31 renal testing of Cn1ccoc1=Nc1ccc(Cl)c(Cl)c1
Result: > 10 µM

Request: Please respond with reported TGI (system UO-31 renal) for COCCOC1=C(Cl)C(=O)c2c(O)ccc(O)c2C1=O .
Result: 3.83 µM

Request: Given CCCCCCCCCCCC(=O)OC(COC(N)=O)COc1ccc(Cl)cc1 (stereo not drawn) , report its TGI on UO-31 renal.
Result: > 100 µM

Request: Report the value of TGI obtained on UO-31 renal for Cc1cc2c(cc1Cl)SC(C(=O)c1ccc(Cl)c(Cl)c1)NS2(=O)=O (stereo not drawn) .
Result: > 100 µM

Request: Please look at C[N+]1(C)C[C@@H](O)C[C@@H]1C(=O)[O-] and tell me its recorded TGI on UO-31 renal.
Result: > 100 µM

Request: # return TGI for COc1cc(/C=C/c2ccccn2)cc(OC)c1OC , test system: UO-31 renal
Result: > 10 µM

Request: Please respond with reported TGI (system UO-31 renal) for COCOc1c(C(OCOC)c2cnc(Sc3ccccc3)n2C)ccc(OC)c1OC (stereo not drawn) .
Result: > 100 µM

Request: Provide TGI, tested on UO-31 renal, for COc1ccc(/C=C2\N=C(c3ccccc3)OC2=O)cc1OC(C)=O .
Result: > 100 µM

Request: Please tell me the measured TGI for CCCCC(C(=O)CCC(=O)Nc1ccc(Cl)cc1)C(=O)C(C)C (stereo not drawn) ; system: UO-31 renal.
Result: > 100 µM

Request: Return reported TGI for target or system UO-31 renal, item CCc1ccc(/C=C/C(=O)C2CN(CC)CCC2(O)/C=C/c2ccc(CC)cc2)cc1 (stereo not drawn) .
Result: 11.6 µM

Request: Give UO-31 renal TGI for the following compound: Oc1cccc(-c2nc(-c3ccccc3)[nH]c2-c2ccncc2)c1
Result: > 25 µM

Request: Fill in: TGI on UO-31 renal, entry Nc1c(Br)cc(-c2nc3ccccc3s2)cc1Br
Result: > 100 µM

Request: Name the value of TGI reported for CC1CC(c2ccc(Cl)c(Cl)c2)=Nc2ccccc2S1 (stereo not drawn) when tested on UO-31 renal.
Result: > 100 µM

Request: # assay system UO-31 renal: give TGI of CNCCNc1nc2ccccc2c2c(=O)c3cccc(C)c3sc12
Result: 7.12 µM

Request: Report TGI under test system UO-31 renal for CC(=O)NC(CCCNC(=O)OCc1ccccc1)C(=O)O (stereo not drawn) .
Result: > 100 µM

Request: Param request: TGI | system UO-31 renal | item O=C(NNC(=O)c1ccccc1O)c1ccco1
Result: > 100 µM

Request: For UO-31 renal, give the measured TGI of the entry COc1cc(Cn2c(SCC(=O)Nc3ccc(Cl)cc3)nc3ccccc3c2=O)cc(OC)c1OC
Result: 32.4 µM

====

tested on: SK-OV-3 ovarian; experiment: NCI tumour cell line growth inhibition, 48 h
Can you tell me TGI for the items I'm about to list?

Request: Indicate the recorded TGI value for this molecule: O=C1C(Br)=CC2(C=C1Br)CCNc1c(O)c3c4c(c12)=NCCC=4C=N3
Result: 4.26 µM

Request: Annotate the molecule O=C(/C=C/c1ccc(O)cc1)c1cc(Cl)ccc1O with its measured TGI.
Result: > 100 µM

Request: Find the measured TGI of CC1COCCN1CC#CCOC(=O)c1cc2ccccc2oc1=O (stereo unspecified) and report it.
Result: > 100 µM

Request: Return the recorded TGI value; entry: COc1cc(/C=C/c2ccccn2)cc(OC)c1OC
Result: > 10 µM

Request: Assign TGI to the following record: CC1CC(c2ccc(Cl)c(Cl)c2)=Nc2ccccc2S1 (stereo unspecified)
Result: > 100 µM

Request: Output TGI of N=C1C(c2nc3ccccc3s2)=C(O)CN1c1cc(Cl)cc(Cl)c1
Result: > 100 µM
